Assay: RAM signaling pathway blockade in yeast – S. cerevisiae, Pdr1DBD-CYC8 efflux-inhibited sensitized strain, primary screen (AID 1298);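 also: 0% = DMSO untreated cells without growth and 100% = 10 µM 1-NA-PP1 full growth; higher means more yeast growth rescued from 5-FOA killing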
Conditions: S. cerevisiae cbk1-as DSE1-URA3 strain, 5-FOA growth OD615, 2 d; at 50 µM; active compounds read high
Recorded RAM network inhibition for the following molecules
Express the result in % but write the number alone.

// worked examples, RAM network inhibition included
[[record]]
molecule = "CCOc1cccc2c1OC1(C)CC2NC(=O)N1c1cccc(Cl)c1 (centres undefined)"
measurement_label = "RAM network inhibition"
number = 5.25

[[record]]
molecule = "C=CCn1c(C)nc2c(c1=O)c1nc3ccccc3nc1n2-c1ccc(C)cc1"
measurement_label = "RAM network inhibition"
number = 4.86

[[record]]
molecule = "O=c1c2cnn(-c3ccccc3)c2ncn1Cc1ccccc1F"
measurement_label = "RAM network inhibition"
number = 4.95

[[record]]
molecule = "Cc1ncc(CO)c2cc(S(=O)(=O)c3ccc(F)cc3)c(=O)oc12"
measurement_label = "RAM network inhibition"
number = 1.42

[[record]]
molecule = "CN1CCN(Cc2ccc(-c3ccc(Cl)cc3)o2)CC1"
measurement_label = "RAM network inhibition"
number = 2.49


**Query** What RAM network inhibition value was documented for this molecule, CCOc1cccc(OCCOCCN(C)Cc2ccccc2)c1 ?
**Result** 0.2

**Query** Also check Cc1ccc(S(=O)(=O)N2CCN(C(=O)CCC(=O)N3CCc4ccccc43)CC2)cc1
**Result** 2.05

**Query** Also check O=C(OC1CCCCC1)c1ccc(NC(=O)c2ccco2)cc1
**Result** 2.81

**Query** Also check Cn1c(=O)[nH]c(=O)c2c1nc(Sc1ncccn1)n2CCCc1ccccc1
**Result** 7.26

**Query** Also check CCCCCn1c(=O)[nH]c2c(c1=O)CCC2
**Result** 0.26

**Query** Also check COc1ccc(NC(=O)C(c2ccccc2)N(C)C(=O)c2cnccn2)cc1 (centres undefined)
**Result** 0.05

**Query** Also check O=C(NCc1cccnc1)NC1(C(F)(F)F)Oc2ccccc2O1
**Result** 3.16

**Query** Also check CC1(C)SCC(C(=O)O)N1C=O (centres undefined)
**Result** 2.9

**Query** Also check COc1cc2c(cc1OC)C1=C(C#N)CC/C(=N\S(=O)(=O)c3ccccc3)N1CC2
**Result** 2.61

**Query** Also check Cc1c(NC(=O)CCC2CCCCC2)c(=O)n(-c2ccccc2)n1C
**Result** 3.28

**Query** Also check Cn1c(=O)oc2cc(S(=O)(=O)Nc3cccc(F)c3)ccc21
**Result** 5.85

**Query** Also check Cn1c(Cn2c(=O)sc3ccccc32)nnc1SCC(=O)NC1CCCCC1
**Result** 1.06

**Query** Also check O=C(N1CCOCC1)N1CCN(c2ccccc2F)CC1
**Result** 4.21

**Query** Also check O=S(=O)(NCCc1csc(-c2cccnc2)n1)c1cccs1
**Result** 0.73

**Query** Also check O=C(NCC(c1cccs1)N1CCOCC1)c1cc2ccccc2o1 (centres undefined)
**Result** 0.26

**Query** Also check COc1ccc(N2CC(O)=C(c3nc(C)cs3)C2=N)cc1
**Result** 3.27

**Query** Also check COc1cc(C2NC(=O)NC(C)=C2C(=O)OC2CCCCC2)cc(Br)c1O (centres undefined)
**Result** 8.82

**Query** Also check Fc1cc2nc(-c3ccncc3)[nH]c2cc1F
**Result** 2.24

**Query** Also check O=C(Nc1ccccc1O)c1ccccc1O
**Result** -1.84
